Target: human CYP11B1 (Homo sapiens (Human), UniProt P15538)
Sequence (P15538 25-503): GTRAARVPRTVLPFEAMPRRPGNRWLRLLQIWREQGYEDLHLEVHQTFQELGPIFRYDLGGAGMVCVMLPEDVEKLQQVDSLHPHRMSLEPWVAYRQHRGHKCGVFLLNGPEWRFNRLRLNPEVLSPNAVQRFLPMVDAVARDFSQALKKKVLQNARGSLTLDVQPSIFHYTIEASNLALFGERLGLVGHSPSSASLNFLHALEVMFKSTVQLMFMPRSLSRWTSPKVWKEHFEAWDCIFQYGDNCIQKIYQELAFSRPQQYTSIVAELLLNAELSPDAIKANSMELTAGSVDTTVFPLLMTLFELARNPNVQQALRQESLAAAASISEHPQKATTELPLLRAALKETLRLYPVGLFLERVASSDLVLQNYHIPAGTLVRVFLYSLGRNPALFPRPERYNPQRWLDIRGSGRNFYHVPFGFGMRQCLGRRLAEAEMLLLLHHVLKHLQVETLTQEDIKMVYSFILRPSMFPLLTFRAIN
Assay: G-402 cellular enzyme assay, human CYP11B1 (cortisol release, HTRF)
Format: cell-based
Conditions: G-402 cells expressing human CYP11B1; 1 μM Deoxycortisol
pEC50: −log10 of the molar value.

| compound | tested_on | pEC50 |
| --- | --- | --- |
| FC(F)(F)c1ccc(Oc2cn[nH]c2-c2ccccc2Cl)cc1 [Example 23] | human CYP11B1 (Homo sapiens (Human), UniProt P15538) | 6.14 |
| N#Cc1ccc(Oc2cn[nH]c2-c2cccc(OCc3ccccc3)c2)cc1 [Example 36] | human CYP11B1 (Homo sapiens (Human), UniProt P15538) | 7.28 |
| Fc1cc(C(F)(F)F)ccc1-c1[nH]ncc1Oc1ccc(Cl)cc1 [Example 13] | human CYP11B1 (Homo sapiens (Human), UniProt P15538) | 5.61 |
| Cn1cc(COc2ccccc2-c2[nH]ncc2Oc2ccc(C#N)cc2)cn1 [Example 80] | human CYP11B1 (Homo sapiens (Human), UniProt P15538) | 8.16 |
| Fc1cc(Cl)ccc1-c1[nH]ncc1Oc1ccc(C(F)(F)F)cc1 [Example 27] | human CYP11B1 (Homo sapiens (Human), UniProt P15538) | 5.48 |
| N#Cc1ccc(Oc2cn[nH]c2-c2ccccc2OCc2ccccn2)cc1 [Example 79] | human CYP11B1 (Homo sapiens (Human), UniProt P15538) | 8.60 |

----------
Biological target: human CYP11B2 (Homo sapiens (Human), UniProt P19099)
Sequence (P19099 25-503): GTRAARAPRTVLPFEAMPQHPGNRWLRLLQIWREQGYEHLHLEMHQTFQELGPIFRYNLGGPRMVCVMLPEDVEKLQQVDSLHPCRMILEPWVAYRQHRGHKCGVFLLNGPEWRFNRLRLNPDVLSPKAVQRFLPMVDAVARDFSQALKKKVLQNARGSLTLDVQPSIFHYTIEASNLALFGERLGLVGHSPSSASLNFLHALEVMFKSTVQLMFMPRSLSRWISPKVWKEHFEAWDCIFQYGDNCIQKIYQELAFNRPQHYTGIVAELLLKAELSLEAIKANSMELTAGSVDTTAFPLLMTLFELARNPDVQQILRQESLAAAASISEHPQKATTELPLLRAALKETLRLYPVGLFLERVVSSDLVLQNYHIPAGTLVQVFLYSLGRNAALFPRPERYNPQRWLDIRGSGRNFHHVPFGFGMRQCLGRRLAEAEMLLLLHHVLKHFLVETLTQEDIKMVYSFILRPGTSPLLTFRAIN
Test: G-402 cellular enzyme assay, human CYP11B2 (aldosterone release, HTRF)
Conditions: G-402 cells expressing human CYP11B2; 1 μM Deoxycorticosterone
pEC50: −log10 of the molar value.
Known pEC50 of a selection of compounds

| compound | pEC50 |
| --- | --- |
| CC(=O)N1CCC(Oc2cccc(-c3[nH]ncc3Oc3ccc(C#N)cc3)c2)C1 (racemic) | 6.67 |
| Cn1cc(C(=O)N2CCN(Cc3[nH]ncc3Oc3ccc(C#N)cc3)CC2)cn1 | 6.83 |
| N#Cc1ccc(Oc2cn[nH]c2-c2cccc(COc3cccnc3)c2)cc1 | 7.97 |
| CS(=O)(=O)c1ccc(-c2[nH]ncc2Oc2ccc(Cl)cc2)cc1 | 7.58 |
| Cn1cc(COc2ccccc2-c2[nH]ncc2Oc2ccc(C#N)cc2)cn1 | 9.52 |
| N#Cc1ccc(Oc2cn[nH]c2-c2cccc(CO)c2)cc1 | 7.88 |
| N#Cc1ccc(Oc2cn[nH]c2-c2cccc(F)c2F)cc1 | 8.12 |
| FC(F)(F)c1ccc(Oc2cn[nH]c2-c2ccccc2Cl)cc1 | 7.57 |
| Fc1cccc(-c2[nH]ncc2Oc2ccc(Cl)cc2)c1Cl | 7.41 |
| CS(=O)(=O)N1CCN(C(=O)c2cccc(-c3[nH]ncc3Oc3ccc(C#N)cc3)c2)CC1 | 5.98 |

----------
Known EC50 of a selection of compounds
Target: human CYP11B1 (Homo sapiens (Human))
Test: G-402 cellular enzyme assay, human CYP11B1 (cortisol release, HTRF)
Settings: G-402 cells expressing human CYP11B1; 1 μM Deoxycortisol
Text: Herein we identified the use of the G-402 cell line as a host cell to ectopically express (transiently or stably) enzymes of the CYP11 family. […] Importantly the identified cell line G-402 expresses co-factors (adrenodoxin and adrenodoxin reductase) important for the activity of the CYP11 family and no relevant enzyme activity of the CYP11 family (in comparison to H295R cells) was detected in these cells. […]

| compound_string | EC50, µM |
| --- | --- |
| N#Cc1ccc(Oc2cn[nH]c2-c2cccc(F)c2F)cc1 | 0.161 |
| Cn1cc(COc2cccc(-c3[nH]ncc3Oc3ccc(C#N)cc3)c2)cn1 | 0.0936 |
| N#Cc1ccc(Oc2cn[nH]c2-c2ccccc2Cl)c(F)c1 | 0.134 |
